# Tested on: compound-treated mice
# assay-comment: Neuropharmacological assay (SmartCube): behavioral activity signature and minimal effective dose
# Format: in vivo
# measurement-context: i.p. 15 min before test, most efficacious dose(s)
readout-name: AG: analgesic (probability of activity signature)

{"columns": ["compound", "reported-value"],
 "data": [
  ["CCC[C@H]1OCc2ccccc2[C@@H]1N (single isomer, unassigned) [Example 251]", "+ (LOQ ≤ + <5%)"],
  ["Cc1ccc2c(c1)[C@H](N)[C@@H](C(C)C)OC2 [Example 210]", "++ (5% ≤ ++ <25%)"],
  ["COc1cccc2c1[C@H](N)[C@@H](C)OC2.Cl [Example 231]", "++ (5% ≤ ++ <25%)"],
  ["Cc1ccc2c(c1)[C@H](N)CCOC2 (single isomer, unassigned) [Example 115]", "++ (5% ≤ ++ <25%)"],
  ["Cl.NC1CCOCc2cccc(Cl)c21 (stereo not drawn) [Example 41]", "++ (5% ≤ ++ <25%)"],
  ["Cc1cccc2c1[C@@H](N)[C@H](C)OC2 (single isomer, unassigned) [Example 168]", "+ (LOQ ≤ + <5%)"],
  ["C#CCN[C@@H]1c2ccccc2CO[C@H]1C.Cl [Example 267]", "+ (LOQ ≤ + <5%)"],
  ["Cc1ccc(Cl)c2c1[C@H](N)[C@H](C)OC2.Cl [Example 225]", "++ (5% ≤ ++ <25%)"],
  ["Cc1ccc2c(c1C)C(NC(C)C)COC2.Cl (stereo not drawn) [Example 55]", "++ (5% ≤ ++ <25%)"]
]}

###

# Test system: compound-treated mice
# assay-comment: Neuropharmacological assay (SmartCube): behavioral activity signature and minimal effective dose
# Assay type: in vivo
# measurement-context: i.p. 15 min before test, most efficacious dose(s)
readout-name: AG: analgesic (probability of activity signature)

{"columns": ["compound", "reported-value"],
 "data": [
  ["CC(C)[C@@H]1OCc2ccccc2[C@H]1N.Cl (relative stereo) [Example 274]", "+ (LOQ ≤ + <5%)"],
  ["C[C@H]1OCc2ccccc2[C@H]1N (single isomer, unassigned)", "++ (5% ≤ ++ <25%)"],
  ["Cl.N[C@H]1c2ccccc2CO[C@H]1CF (relative stereo)", "+ (LOQ ≤ + <5%)"],
  ["Cl.NC1COCc2ccc3c(c21)C1CCC3C1 (single isomer, unassigned) [Example 162]", "++ (5% ≤ ++ <25%)"],
  ["N[C@@H]1COCc2ccc3ccccc3c21 (single isomer, unassigned)", "++ (5% ≤ ++ <25%)"],
  ["CCNC1COCc2ccc(C)c(C)c21.Cl (centres unmarked)", "++ (5% ≤ ++ <25%)"],
  ["Cc1ccc2c(c1)[C@H](N)[C@@H](C)OC2", "++ (5% ≤ ++ <25%)"],
  ["C[C@H]1OCc2ccc3c(c2[C@@H]1N)CCCC3.Cl", "+ (LOQ ≤ + <5%)"],
  ["Cc1cc2c(cc1C)[C@H](N)[C@@H](C)OC2.Cl", "+ (LOQ ≤ + <5%)"],
  ["Cl.NC1COCc2ccc3ncccc3c21 (centres unmarked)", "+ (LOQ ≤ + <5%)"],
  ["COc1ccc2c(c1)COCC2N.Cl (centres unmarked)", "++ (5% ≤ ++ <25%)"],
  ["CCN(C)C(=O)Oc1ccc2c(c1)[C@H](N)[C@@H](C)OC2.Cl", "+ (LOQ ≤ + <5%)"],
  ["CCCN[C@H]1c2ccccc2CO[C@H]1C.Cl", "+ (LOQ ≤ + <5%)"],
  ["Cc1cccc2c1[C@@H](N)[C@@H](C)OC2 (single isomer, unassigned)", "++ (5% ≤ ++ <25%)"],
  ["C[C@@H]1OC[C@@H](N)c2cc(F)ccc21.Cl", "++ (5% ≤ ++ <25%)"],
  ["Cc1ccc2c(c1C)[C@@H](N)COC2", "++ (5% ≤ ++ <25%)"],
  ["Cc1ccc2c(c1)[C@@H](C)OC[C@H]2N", "+ (LOQ ≤ + <5%)"],
  ["C[C@H]1OCc2ccc3c(c2[C@@H]1N)CCCO3.Cl", "++ (5% ≤ ++ <25%)"],
  ["CC[C@@H]1OCc2ccccc2[C@@H]1NC.Cl", "+ (LOQ ≤ + <5%)"]
]}

###

# System: compound-treated mice
# assay-comment: Neuropharmacological assay (SmartCube): behavioral activity signature and minimal effective dose
# Type: in vivo
# measurement-context: i.p. 15 min before test, most efficacious dose(s)
readout-name: CE: cognitive enhancer (probability of activity signature)

{"columns": ["compound", "reported-value"],
 "data": [
  ["C[C@@H]1OCc2ccc(F)cc2[C@H]1N [Example 184]", "++ (5% ≤ ++ <25%)"],
  ["Cc1cccc2c1[C@H](C)OC[C@@H]2N [Example 255]", "+ (LOQ ≤ + <5%)"],
  ["Cc1ccc2c(c1)CO[C@@H](C)[C@@H]2N [Example 253]", "+ (LOQ ≤ + <5%)"],
  ["Cc1ccc2c(c1)[C@H](N)[C@H](C)OC2.Cl (relative stereo) [Example 76]", "++ (5% ≤ ++ <25%)"],
  ["COc1ccc2c(c1)CO[C@H](C)[C@H]2N.Cl [Example 232]", "+ (LOQ ≤ + <5%)"]
]}

###

# Test system: compound-treated mice
# assay-comment: Neuropharmacological assay (SmartCube): behavioral activity signature and minimal effective dose
# Type: in vivo
# measurement-context: i.p. 15 min before test, most efficacious dose(s)
readout-name: AG: analgesic (probability of activity signature)

{"columns": ["compound", "reported-value"],
 "data": [
  ["COc1ccc2c(c1)[C@@H](N)[C@H](C)OC2 (single isomer, unassigned)", "++ (5% ≤ ++ <25%)"],
  ["CC[C@H]1OCc2cccc(C)c2[C@@H]1N.Cl", "++ (5% ≤ ++ <25%)"],
  ["CC[C@@H]1OCc2ccc(F)cc2[C@H]1N", "+ (LOQ ≤ + <5%)"],
  ["Cc1ccc2c(c1)[C@H](N)[C@H](C)OC2.Cl (relative stereo)", "++ (5% ≤ ++ <25%)"],
  ["CCc1ccc2c(c1)C(N)COC2.Cl (centres unmarked) [Example 20, 6-Ethylisochroman-4-amine hydrochloride]", "++ (5% ≤ ++ <25%)"],
  ["C[C@H]1OCc2ccc(Cl)c(Cl)c2[C@@H]1N.Cl", "+ (LOQ ≤ + <5%)"],
  ["CN[C@@H]1COCc2ccc(C)c(C)c21", "+++ (25% ≤ +++ <50%)"],
  ["Cl.NC1COCc2cc(F)ccc21 (centres unmarked)", "++ (5% ≤ ++ <25%)"],
  ["CC(C)C[C@@H]1OCc2ccccc2[C@@H]1N", "+ (LOQ ≤ + <5%)"],
  ["Cc1ccc(C)c2c1COCC2N.Cl (centres unmarked)", "++ (5% ≤ ++ <25%)"],
  ["C[C@@H]1OCc2ccc3c(c2[C@@H]1N)CCCC3.Cl", "+ (LOQ ≤ + <5%)"],
  ["CC[C@@H]1OCc2cccc(C)c2[C@@H]1N.Cl", "+ (LOQ ≤ + <5%)"],
  ["CCN(C)C(=O)Oc1ccc2c(c1)[C@H](N(C)C)[C@H](C)OC2.Cl", "+ (LOQ ≤ + <5%)"],
  ["COc1ccc2c(c1)CO[C@H](C)[C@H]2N.Cl", "++ (5% ≤ ++ <25%)"],
  ["N[C@H]1COCc2ccc(Cl)c(Cl)c21 (single isomer, unassigned)", "++ (5% ≤ ++ <25%)"],
  ["C[C@@H]1OCc2cc(F)ccc2[C@@H]1N.Cl (single isomer, unassigned)", "++ (5% ≤ ++ <25%)"],
  ["Cc1ccc2c(c1)[C@H](N)CO[C@H]2C.Cl", "++ (5% ≤ ++ <25%)"],
  ["Cl.NC1COCc2ccc3c(c21)C1CCC3C1 (centres unmarked) [Example 51]", "++ (5% ≤ ++ <25%)"],
  ["CC1(C)OCC(N)c2ccccc21.Cl (centres unmarked)", "+++ (25% ≤ +++ <50%)"],
  ["Cl.NC1COCc2ccc3c(c21)CCCO3 (centres unmarked)", "++ (5% ≤ ++ <25%)"]
]}

###

Measured minimal effective dose by item
# System: compound-treated mice
# assay-comment: Neuropharmacological assay (SmartCube): behavioral activity signature and minimal effective dose
# Assay type: in vivo
# measurement-context: Mus musculus, ip, MED = dose having 50% or more total activity, read-out: Potency: minimal effective dose (MED), binned

{"columns": ["compound", "minimal effective dose"],
 "data": [
  ["C[C@@H]1OCc2ccc3c(c2[C@@H]1N)CCCO3.Cl [Example 248]", "10 to 30 mg/kg"],
  ["Cl.N[C@H]1c2ccccc2CO[C@@H]1CF (single isomer, unassigned) [Example 276]", "3 to 10 mg/kg"],
  ["C[C@H]1OCc2cc(F)ccc2[C@@H]1N.Cl (single isomer, unassigned) [Example 213]", "3 to 10 mg/kg"],
  ["COc1ccc2c(c1)CO[C@@H](C)[C@H]2N.Cl [Example 233]", "> 30 mg/kg"],
  ["Cc1ccc2c(c1)CO[C@@H](C)[C@@H]2N [Example 253]", "3 to 10 mg/kg"]
]}
